# experiment description: Volume of distribution at steady state in dog at 0.5 mg/kg, iv and 1 mg/kg, po
# Type: ADME, organism-based, Canis lupus familiaris
# test context: in vivo, read-out: Vdss
measure name: Vd (L/kg)

molecule: Cc1cc(F)ccc1[C@H]1C[C@@H](N2CCN3C(=O)CC[C@H]3C2)CCN1C(=O)N(C)[C@H](C)c1cc(C(F)(F)F)cc(C(F)(F)F)c1 [ORVEPITANT]
measure name: Vd
reported: 2
//
molecule: Cc1cc(F)ccc1[C@H]1C[C@H](N2CCN3C(=O)CC[C@H]3C2)CCN1C(=O)N(C)[C@H](C)c1cc(C(F)(F)F)cc(C(F)(F)F)c1
measure name: Vd
reported: 2
